# Test Target: PTPN2 (Homo sapiens (Human), UniProt P17706)
# Sequence (P17706 other isoform, or with tags, fused parts or gaps isoform P17706-2): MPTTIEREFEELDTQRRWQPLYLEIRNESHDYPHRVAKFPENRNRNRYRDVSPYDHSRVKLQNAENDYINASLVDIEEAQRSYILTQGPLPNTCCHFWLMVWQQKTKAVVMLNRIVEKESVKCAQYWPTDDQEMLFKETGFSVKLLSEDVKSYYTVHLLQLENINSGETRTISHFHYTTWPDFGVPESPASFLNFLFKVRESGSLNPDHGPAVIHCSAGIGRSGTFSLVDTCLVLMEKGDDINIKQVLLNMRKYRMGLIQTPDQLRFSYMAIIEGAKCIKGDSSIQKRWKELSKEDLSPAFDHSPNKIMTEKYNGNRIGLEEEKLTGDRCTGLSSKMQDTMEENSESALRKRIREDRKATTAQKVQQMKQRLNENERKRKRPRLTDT
# Assay Details: Phosphatase activity assay using DiFMUP as substrate
# Assay type: biochemical
# Experimental Conditions: PTPN2 0.15 nM, 10 mM DTT
Value Kind: IC50 (nM)

Observe how each entry below is paired with its result.
[
  {
    "Smiles Input": "COc1cc(C)cc(NCc2cc(O)c(N3CC(=O)NS3(=O)=O)c(F)c2)n1",
    "Unit Info": "nM",
    "IC50": 140
  },
  {
    "Smiles Input": "O=C1CN(c2c(O)cc(CNc3cccc(C(F)F)n3)cc2F)S(=O)(=O)N1",
    "Unit Info": "nM",
    "IC50": 40
  },
  {
    "Smiles Input": "Cc1cc(Br)nc(NCc2cc(O)c(N3CC(=O)NS3(=O)=O)c(F)c2)c1",
    "Unit Info": "nM",
    "IC50": 40
  },
  {
    "Smiles Input": "CCc1ccnc(NCc2cc(O)c(N3CC(=O)NS3(=O)=O)c(F)c2)c1",
    "Unit Info": "nM",
    "IC50": 6
  },
  {
    "Smiles Input": "CC(C)(C)c1ccc(NCc2cc(O)c(N3CC(=O)NS3(=O)=O)c(F)c2)nc1",
    "Unit Info": "nM",
    "IC50": 8
  }
]

(a) COc1cnc(NCc2cc(O)c(N3CC(=O)NS3(=O)=O)c(F)c2)cc1OC
(b) Cc1cnc(NCc2cc(O)c(N3CC(=O)NS3(=O)=O)c(F)c2)c(C)c1
Ask | From the items above, decide which of a and b has the lower IC50 reading. # reply format: chosen label
Reply | a

====

# Test system: B16-F10 cells
# Assay Details: Cell proliferation assay (CellTiter-Glo) in B16-F10 cells with IFN-gamma
# Format: cell-based
# Experimental Conditions: 120 h, mouse IFN-gamma 10 ng/mL, read-out: PTPN2 Prolif 5d B16F10 EC50
pEC50: −log10 of the molar value.
Value Kind: pEC50

[
  {
    "Molecule": "COc1cnc(NCc2cc(O)c(N3CC(=O)NS3(=O)=O)c(F)c2)cc1OC [EXAMPLE 26]",
    "pEC50": 6.13
  }
]

(1) COc1cc(NCc2cc(O)c(N3CC(=O)NS3(=O)=O)c(F)c2)nc(OC)c1 [EXAMPLE 18]
(2) Cc1ccnc(NCc2cc(O)c(N3CC(=O)NS3(=O)=O)c(F)c2)c1C [EXAMPLE 25]
(3) Cc1cc(NCc2cc(O)c(N3CC(=O)NS3(=O)=O)c(F)c2)nc(N2CCOCC2)c1 [EXAMPLE 49]
Ask | Sort ascending by pEC50. Give your ranking as a list of the labels in the requested order.
Reply | 3, 2, 1

====

# Test system: B16-F10 cells
# Assay Details: Cell proliferation assay (CellTiter-Glo) in B16-F10 cells with IFN-gamma
# Assay type: cell-based
# Experimental Conditions: 120 h, mouse IFN-gamma 10 ng/mL, read-out: PTPN2 Prolif 5d B16F10 EC50
pEC50: −log10 of the molar value.
Value Kind: pEC50

Observe how each entry below is paired with its result.
[
  {
    "Smiles Input": "CC(C)c1ccc(NCc2cc(O)c(N3CC(=O)NS3(=O)=O)c(F)c2)nc1",
    "Value Kind": "pEC50",
    "Value": 5.75
  },
  {
    "Smiles Input": "O=C1CN(c2c(O)cc(CNc3cc(OC4CC4)ccn3)cc2F)S(=O)(=O)N1",
    "Value Kind": "pEC50",
    "Value": 6.77
  }
]

(P) COc1cnc(NCc2cc(O)c(N3CC(=O)NS3(=O)=O)c(F)c2)c(OC)c1
(Q) COc1ccc(NCc2cc(O)c(N3CC(=O)NS3(=O)=O)c(F)c2)nc1
Ask | From the items above, decide which of P and Q has the lower pEC50 reading. # reply format: chosen label
Reply | P
(P: 5.76, Q: 6.07)

(a) O=C1CN(c2c(O)cc(CNc3cc(F)ccn3)cc2F)S(=O)(=O)N1
(b) Cc1ccc(C)c(NCc2cc(O)c(N3CC(=O)NS3(=O)=O)c(F)c2)n1
(c) O=C1CN(c2c(O)cc(CNc3cc(C4CC4)ccn3)cc2F)S(=O)(=O)N1
Ask | Rank descending by pEC50. Give your ranking as a list of the labels in the requested order.
Reply | c, a, b
(c: 6.24, a: 5.99, b: 5.40)

====

# Test system: B16-F10 cells
# Assay Details: Cell proliferation assay (CellTiter-Glo) in B16-F10 cells with IFN-gamma
# Type: cell-based
# Experimental Conditions: 120 h, mouse IFN-gamma 10 ng/mL, read-out: PTPN2 Prolif 5d B16F10 EC50
pEC50: −log10 of the molar value.
Value Kind: pEC50

[
  {
    "Smiles Input": "COc1cccc(NCc2cc(O)c(N3CC(=O)NS3(=O)=O)c(F)c2)n1",
    "pEC50": 5.06
  },
  {
    "Smiles Input": "COc1ccc(NCc2cc(O)c(N3CC(=O)NS3(=O)=O)c(F)c2)nc1OC",
    "pEC50": 5.66
  },
  {
    "Smiles Input": "CC(C)(C)c1ccc(NCc2cc(O)c(N3CC(=O)NS3(=O)=O)c(F)c2)nc1",
    "pEC50": 6.17
  }
]

(a) Cc1ccc(NCc2cc(O)c(N3CC(=O)NS3(=O)=O)c(F)c2)nc1
(b) COc1ccc(OC)c(NCc2cc(O)c(N3CC(=O)NS3(=O)=O)c(F)c2)n1
Ask | From the items above, decide which of a and b has the lower pEC50 reading. # reply format: chosen label
Reply | b
(b: 5.17, a: 6.21)

(1) O=C1CN(c2c(O)cc(CNc3ccccn3)cc2F)S(=O)(=O)N1
(2) N#Cc1cccc(NCc2cc(O)c(N3CC(=O)NS3(=O)=O)c(F)c2)n1
(3) Cc1ccc(NCc2cc(O)c(N3CC(=O)NS3(=O)=O)c(F)c2)nc1C
(4) COc1cc(C)nc(NCc2cc(O)c(N3CC(=O)NS3(=O)=O)c(F)c2)c1
Ask | Sort ascending by pEC50. Give your ranking as a list of the labels in the requested order.
Reply | 2, 1, 3, 4

(P) Cc1cccc(NCc2cc(O)c(N3CC(=O)NS3(=O)=O)c(F)c2)n1
(Q) Cc1cc(NCc2cc(O)c(N3CC(=O)NS3(=O)=O)c(F)c2)ncc1F
Ask | Name the one with the greater pEC50 value, either P or Q as given. # reply format: chosen label
Reply | P

(1) O=C1CN(c2c(O)cc(CNc3ccc(C4CC4)cn3)cc2F)S(=O)(=O)N1
(2) Cc1ccnc(NCc2cc(O)c(N3CC(=O)NS3(=O)=O)c(F)c2)c1
(3) O=C1CN(c2c(O)cc(CNc3ccc(-c4ccccc4)cn3)cc2F)S(=O)(=O)N1
(4) COc1ccnc(NCc2cc(O)c(N3CC(=O)NS3(=O)=O)c(F)c2)c1OC
Ask | Rank descending by pEC50. Give your ranking as a list of the labels in the requested order.
Reply | 2, 1, 4, 3
(2: 6.77, 1: 6.21, 4: 5.77, 3: 5.20)

(I) COc1ccc(C)nc1NCc1cc(O)c(N2CC(=O)NS2(=O)=O)c(F)c1
(II) Cc1cc(Br)nc(NCc2cc(O)c(N3CC(=O)NS3(=O)=O)c(F)c2)c1
Ask | Name the one with the greater pEC50 value, either I or II as given. # reply format: chosen label
Reply | I
(I: 5.61, II: 5.34)

====

# Test system: B16-F10 cells
# Assay Details: Cell proliferation assay (CellTiter-Glo) in B16-F10 cells with IFN-gamma
# Type: cell-based
# Experimental Conditions: 120 h, mouse IFN-gamma 10 ng/mL, read-out: PTPN2 Prolif 5d B16F10 EC50
Value Kind: EC50 (µM)

Observe how each entry below is paired with its result.
[
  {
    "Smiles Input": "CN(C)c1cccc(NCc2cc(O)c(N3CC(=O)NS3(=O)=O)c(F)c2)n1",
    "Unit Info": "µM",
    "Value": 5.75
  },
  {
    "Smiles Input": "COc1ccc(C)c(NCc2cc(O)c(N3CC(=O)NS3(=O)=O)c(F)c2)n1",
    "Unit Info": "µM",
    "Value": 9.02
  },
  {
    "Smiles Input": "Cc1cc(Oc2ccccc2)cc(NCc2cc(O)c(N3CC(=O)NS3(=O)=O)c(F)c2)n1",
    "Unit Info": "µM",
    "Value": 3.34
  }
]

(1) N#Cc1ccnc(NCc2cc(O)c(N3CC(=O)NS3(=O)=O)c(F)c2)c1
(2) O=C1CN(c2c(O)cc(CNc3cccc(=O)[nH]3)cc2F)S(=O)(=O)N1
(3) CCc1cccnc1NCc1cc(O)c(N2CC(=O)NS2(=O)=O)c(F)c1
Ask | Rank descending by EC50. Give your ranking as a list of the labels in the requested order.
Reply | 3, 1, 2

(A) O=C1CN(c2c(O)cc(CNc3cc(C(F)(F)F)ccn3)cc2F)S(=O)(=O)N1
(B) COc1ccnc(NCc2cc(O)c(N3CC(=O)NS3(=O)=O)c(F)c2)c1
Ask | From the items above, decide which of A and B has the lower EC50 reading. # reply format: chosen label
Reply | B
(B: 0.14 µM, A: 2.67 µM)
